Assay: Cytotoxicity against human MT4 cells
Format: cell-based
READOUT: CC50 (µM)
Numbers only, in µM.

query: Please look up its CC50: O=C(O)C1CCCCC1C(=O)Nc1ccc(Oc2cccc3ccccc23)cc1 (stereo unspecified)
result: 3.5

====

System: Human immunodeficiency virus 1
Experiment: Antiviral activity against HIV1 in MT4 cells assessed as inhibition of viral-induced cytopathic effect by MTT method
Type: functional, organism-based
Conditions: Human immunodeficiency virus 1, MT4
Lab note: cut-off is 20 nM. Strictly less in EC50 is Fulfilled. Exactly 20 nM or more is Not fulfilled.

1. COc1cc2c(cc1Cc1cccc(Cl)c1F)c(=O)c(C(=O)O)cn2[C@@H](CO)C(C)C; Fulfilled
2. O=C(O)c1cn(CCO)c2ccc(Cc3cccc(Cl)c3F)cc2c1=O; Not fulfilled
3. O=C(O)c1c[nH]c2ccc(Cc3cccc(Cl)c3F)cc2c1=O; Not fulfilled
4. COc1cc2c(cc1Cc1cccc(Cl)c1F)c(=O)c(C(=O)O)cn2CCO; Fulfilled

query: Quick check: does CC(C)[C@H](CO)n1cc(C(=O)O)c(=O)c2cc(Cc3cccc(Cl)c3F)ccc21 have EC50 under 20 nM?
result: Fulfilled

====

Target: UniProt Q7ZJM1
Experiment: Inhibition of HIV1 integrase strand transfer activity
pIC50: −log10 of the molar value.
Decide by pIC50: equal to or exceeding 5 means Met, less means Not met.

Solved cases below.
1) N#Cc1c(-c2ccc(Cl)cc2)cc(-c2ccccc2)nc1SCC(=O)O; Not met
2) COc1cccc(NC(=O)c2sc3[nH]c(=O)c(C(=O)O)cc3c2N)c1; Not met
3) Cc1ccc(C(=O)O)cc1NC(=O)CSc1nc2ccccc2s1; Not met
4) O=C(O)CN1C(=O)/C(=C2\SC(=S)N(C(Cc3ccccc3)C(=O)O)C2=O)c2ccccc21 (centres undefined); Not met
5) O=C(O)CSc1nnc(-c2ccco2)c(-c2ccco2)n1; Met

query: pIC50 >= 5 for COc1cc(/C=C2\C(=O)N(c3nnn[nH]3)N=C2C)cc(Cl)c1OC ?
result: Met

query: pIC50 >= 5 for CCOc1cc(/C=C2\C(=O)N(c3nnn[nH]3)N=C2C)cc(Cl)c1OCC ?
result: Met

query: pIC50 >= 5 for COc1ccc(/C=C2\C(=O)N(c3nnn[nH]3)N=C2C)cc1OCc1ccccc1Cl ?
result: Met

====

Consider the following compounds; for each one, report its pIC50.
Target: Human immunodeficiency virus type 1 integrase (Human immunodeficiency virus 1)
Sequence (Q7ZJM1 whole entry): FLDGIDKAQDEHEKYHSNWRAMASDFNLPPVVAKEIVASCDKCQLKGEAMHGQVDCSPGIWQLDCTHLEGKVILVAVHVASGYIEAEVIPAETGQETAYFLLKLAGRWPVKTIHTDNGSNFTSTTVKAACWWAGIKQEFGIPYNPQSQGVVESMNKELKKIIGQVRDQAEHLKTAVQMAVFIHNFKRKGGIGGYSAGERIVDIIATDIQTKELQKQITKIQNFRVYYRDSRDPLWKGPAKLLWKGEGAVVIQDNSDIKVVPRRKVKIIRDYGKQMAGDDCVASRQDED
Test: Inhibition of HIV1 integrase 3'-end processing activity
Answers are plain numbers, as −log10 of the molar value.

1) O=C(O)CN1C(=O)/C(=C2\SC(=S)N(C(Cc3ccccc3)C(=O)O)C2=O)c2ccccc21 (stereo not given); 4.04
2) COc1cc(/C=C2\C(=O)N(c3nnn[nH]3)N=C2C)cc(Cl)c1OC; 5.30
3) CCOc1cc(N(CC)CC)ccc1/C=C1\C(=O)N(c2nnn[nH]2)N=C1C; 4.21
4) O=C(O)CSc1nnc(-c2ccco2)c(-c2ccco2)n1; 4.74

Would you mind giving pIC50 for every compound in the list below?
1. Cc1ccc2nc(-c3ccc(NC(=O)/C=C/C(=O)O)cc3)sc2c1
2. COc1cccc(NC(=O)c2sc3[nH]c(=O)c(C(=O)O)cc3c2N)c1
3. CC1=NN(c2nnn[nH]2)C(=O)/C1=C\c1cc(Cl)c(O)c(Cl)c1
4. Nc1c(C(=O)Nc2ccc(Cl)c(Cl)c2)sc2[nH]c(=O)c(C(=O)O)cc12
5. Cc1ccc(C(=O)O)cc1NC(=O)CSc1nc2ccccc2s1
6. O=C(O)c1ccccc1NC(=O)c1ccccc1S(=O)(=O)Nc1ccc(Oc2ccccc2)cc1
7. CCOc1cc(/C=C2\C(=O)N(c3nnn[nH]3)N=C2C)ccc1OC

result:
4.32
4.09
4.96
4.85
4.20
4.38
4.12

Hello, the source for this data is ChEMBL document CHEMBL1141573, in case you need it.
